# targetUnderTest: ALK(L1152R) (Homo sapiens, UniProt Q9UM73, L1152R)
# Sequence (Q9UM73 19-1620 L1152R): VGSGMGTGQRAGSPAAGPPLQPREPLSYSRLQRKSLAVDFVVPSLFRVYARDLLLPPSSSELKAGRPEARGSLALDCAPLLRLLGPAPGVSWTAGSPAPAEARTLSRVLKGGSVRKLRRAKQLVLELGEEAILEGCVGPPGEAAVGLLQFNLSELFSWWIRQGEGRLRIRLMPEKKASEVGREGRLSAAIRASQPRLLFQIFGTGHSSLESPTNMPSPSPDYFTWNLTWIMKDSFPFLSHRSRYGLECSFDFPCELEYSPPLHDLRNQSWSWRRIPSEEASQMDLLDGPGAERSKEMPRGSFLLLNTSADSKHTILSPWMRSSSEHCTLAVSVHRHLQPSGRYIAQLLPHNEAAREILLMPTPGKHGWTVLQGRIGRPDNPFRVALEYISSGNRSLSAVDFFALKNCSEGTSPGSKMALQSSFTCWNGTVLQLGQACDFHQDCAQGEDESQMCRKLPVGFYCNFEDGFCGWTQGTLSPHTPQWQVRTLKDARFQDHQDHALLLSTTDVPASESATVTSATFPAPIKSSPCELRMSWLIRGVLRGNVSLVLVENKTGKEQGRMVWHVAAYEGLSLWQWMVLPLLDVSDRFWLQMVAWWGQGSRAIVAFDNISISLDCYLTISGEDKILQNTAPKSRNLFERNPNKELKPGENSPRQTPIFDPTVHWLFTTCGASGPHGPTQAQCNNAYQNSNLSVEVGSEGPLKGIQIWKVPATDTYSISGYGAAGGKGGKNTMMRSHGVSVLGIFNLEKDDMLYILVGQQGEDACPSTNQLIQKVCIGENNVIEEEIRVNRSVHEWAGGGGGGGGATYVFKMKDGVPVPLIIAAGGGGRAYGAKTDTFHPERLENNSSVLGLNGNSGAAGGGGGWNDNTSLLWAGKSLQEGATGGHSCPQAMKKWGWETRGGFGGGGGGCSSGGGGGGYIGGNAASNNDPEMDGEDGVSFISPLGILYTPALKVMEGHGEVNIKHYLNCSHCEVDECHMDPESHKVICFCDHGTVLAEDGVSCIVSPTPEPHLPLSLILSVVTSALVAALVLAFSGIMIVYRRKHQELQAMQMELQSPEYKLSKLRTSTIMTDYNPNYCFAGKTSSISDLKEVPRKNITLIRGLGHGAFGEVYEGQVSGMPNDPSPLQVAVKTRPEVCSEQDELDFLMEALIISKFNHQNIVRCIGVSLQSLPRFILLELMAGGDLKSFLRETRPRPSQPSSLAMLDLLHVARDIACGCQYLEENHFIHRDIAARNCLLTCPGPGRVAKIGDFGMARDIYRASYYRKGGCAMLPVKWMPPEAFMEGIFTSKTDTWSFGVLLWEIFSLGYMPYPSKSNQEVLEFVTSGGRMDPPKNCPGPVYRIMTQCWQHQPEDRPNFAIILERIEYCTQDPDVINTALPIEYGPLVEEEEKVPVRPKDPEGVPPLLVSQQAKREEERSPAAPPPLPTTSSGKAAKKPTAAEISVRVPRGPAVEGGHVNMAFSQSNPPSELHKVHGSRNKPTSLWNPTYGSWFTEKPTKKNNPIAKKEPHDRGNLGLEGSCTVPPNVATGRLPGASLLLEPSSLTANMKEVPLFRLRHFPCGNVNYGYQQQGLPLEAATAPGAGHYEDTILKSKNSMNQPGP
# protocolDescription: Biochemical kinase activity (Reaction Biology Corp)
Structures can show the parent of a compound that is named as a salt.
measuredEndpoint: IC50 (pM)
Numeric answer only, unit pM assumed.

// query Hello, please tell me recorded IC50 for this one: C[C@@H]1CN(C(=O)c2ccc(NC(=O)c3cc(O[C@H](C)c4c(Cl)ccc(F)c4Cl)c(N)nn3)cc2)C[C@H](C)N1 [compound of Formula I, hydrochloride]
// result 580

###

# protocolDescription: Solubility determination in water
# Assay type: physicochemical
# condition: room temperature
measuredEndpoint: solubility

// query // fetch solubility given entry C[C@@H]1CN(C(=O)c2ccc(NC(=O)c3cc(O[C@H](C)c4c(Cl)ccc(F)c4Cl)c(N)nn3)cc2)C[C@H](C)N1 [Crystalline form A]
// result 20 to 100 mg/mL

###

# targetUnderTest: ROS1-GOPC (Homo sapiens)
# Sequence (P08922 1883-2347 limits assumed): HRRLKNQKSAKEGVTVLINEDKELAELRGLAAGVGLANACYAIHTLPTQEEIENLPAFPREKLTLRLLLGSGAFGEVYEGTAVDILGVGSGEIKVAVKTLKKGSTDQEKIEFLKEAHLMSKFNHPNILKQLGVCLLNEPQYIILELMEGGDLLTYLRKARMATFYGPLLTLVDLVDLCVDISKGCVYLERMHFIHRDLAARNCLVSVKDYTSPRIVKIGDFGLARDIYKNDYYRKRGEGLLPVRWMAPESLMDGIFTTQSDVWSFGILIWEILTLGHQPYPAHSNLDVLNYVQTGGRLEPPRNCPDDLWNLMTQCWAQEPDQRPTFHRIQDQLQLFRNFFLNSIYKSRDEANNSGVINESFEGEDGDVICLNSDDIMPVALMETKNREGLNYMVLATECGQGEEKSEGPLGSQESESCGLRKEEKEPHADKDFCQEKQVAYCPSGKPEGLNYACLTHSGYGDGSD
Where a name gives a salt, the structure may show the parent alone.
measuredEndpoint: IC50 (nM)
Could you give me the number in nM? Just the number is fine.

// query Tell us which IC50 value is on record for C[C@@H]1CN(C(=O)c2ccc(NC(=O)c3cc(O[C@H](C)c4c(Cl)ccc(F)c4Cl)c(N)nn3)cc2)C[C@H](C)N1 [compound of Formula I, hydrochloride]
// result 0.98

###

# protocolDescription: Pharmacokinetics in female SD rats, intragastric gavage
# Format: in vivo
# condition: Sprague-Dawley, rat, PO, 50 mg/kg single dose, plasma
measuredEndpoint: Cmax (ng/mL)
Record the value in ng/mL, omitting the unit from your answer.

// query Please list Cmax recorded for the compound C[C@@H]1CN(C(=O)c2ccc(NC(=O)c3cc(O[C@H](C)c4c(Cl)ccc(F)c4Cl)c(N)nn3)cc2)C[C@H](C)N1 [Crystalline form A]
// result 1440

###

# targetUnderTest: EPHB1 (Homo sapiens, UniProt P54762)
# Sequence (P54762 18-984): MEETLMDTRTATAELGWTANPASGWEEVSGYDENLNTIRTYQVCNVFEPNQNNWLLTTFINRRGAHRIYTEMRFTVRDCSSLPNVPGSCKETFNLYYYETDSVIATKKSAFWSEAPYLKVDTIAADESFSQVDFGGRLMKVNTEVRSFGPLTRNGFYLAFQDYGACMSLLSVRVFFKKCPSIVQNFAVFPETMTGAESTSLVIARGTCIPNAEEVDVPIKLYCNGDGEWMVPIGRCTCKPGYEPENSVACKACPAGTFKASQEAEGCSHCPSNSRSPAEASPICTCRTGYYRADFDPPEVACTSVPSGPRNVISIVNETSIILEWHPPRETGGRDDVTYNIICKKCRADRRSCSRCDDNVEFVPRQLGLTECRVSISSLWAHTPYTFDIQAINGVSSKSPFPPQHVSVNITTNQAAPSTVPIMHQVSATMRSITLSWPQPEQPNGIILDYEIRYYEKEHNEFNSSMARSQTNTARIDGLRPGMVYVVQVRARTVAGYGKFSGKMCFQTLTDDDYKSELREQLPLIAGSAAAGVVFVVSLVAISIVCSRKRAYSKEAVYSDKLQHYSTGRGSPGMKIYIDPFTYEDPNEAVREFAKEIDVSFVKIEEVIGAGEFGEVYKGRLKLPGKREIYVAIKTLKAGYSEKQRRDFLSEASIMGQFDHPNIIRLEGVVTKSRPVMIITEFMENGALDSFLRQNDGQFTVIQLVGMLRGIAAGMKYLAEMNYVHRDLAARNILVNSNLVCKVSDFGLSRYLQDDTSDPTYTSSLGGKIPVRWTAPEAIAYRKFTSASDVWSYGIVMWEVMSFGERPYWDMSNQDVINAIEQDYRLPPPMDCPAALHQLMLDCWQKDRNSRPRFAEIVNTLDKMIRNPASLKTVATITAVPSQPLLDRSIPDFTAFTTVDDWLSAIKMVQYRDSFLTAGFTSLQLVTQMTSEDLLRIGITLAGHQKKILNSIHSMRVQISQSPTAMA
Counter-ions that a name gives are not always drawn.
measuredEndpoint: IC50 (nM)
Please respond with the number in nM and leave the unit unwritten.

// query Quickly give me recorded IC50 for C[C@@H]1CN(C(=O)c2ccc(NC(=O)c3cc(O[C@H](C)c4c(Cl)ccc(F)c4Cl)c(N)nn3)cc2)C[C@H](C)N1 [compound of Formula I, hydrochloride]
// result 8.59

Origin of measurements: patent US10899744B2
